# Assay notes: Cellular toxicity assay (MTT)
# Assay type: cell-based, human
# Condition details: human; HuH-7 cells, MTT, 72h, highest concentration (100 µM); read-out: Percentage of HuH-7 cells viability at the highest compound concentration tested, 72h
Parameter: viability at 72 h, 100 µM (%)

# Compound structure, Parameter, Numeric result
measured = [
    ("NS(=O)(=O)c1ccc(/N=C2\\S/C(=C3\\C(=O)Nc4c(F)cccc43)C(=O)N2C2CC2)cc1", "viability at 72 h, 100 µM", 60),
]

* * *

# Assay notes: Cellular toxicity assay (MTT)
# Format: cell-based, human
# Condition details: human; HuH-7 cells, MTT, 24h
Measured CC50 at 24 h accompanies every entry in the list below.

# Molecule, CC50 at 24 h
records = [
    ("NS(=O)(=O)c1ccc(/N=C2\\S/C(=C3\\C(=O)Nc4c(F)cccc43)C(=O)N2C2CC2)cc1 [compound 3h]", "> 100 µM"),
    ("CC[C@@]1(O)C(=O)OCc2c1cc1n(c2=O)Cc2cc3ccccc3nc2-1 [Camptothecin, reference compound]", "> 10 µM"),
]

* * *

# Assay notes: Cellular toxicity assay (MTT)
# Type: cell-based, human
# Condition details: human; HuH-7 cells, MTT, 48h
Measured CC50 at 48 h accompanies every entry in the list below.

# Compound, Measurement qualifier, CC50 at 48 h [µM]
rows = [
    ("NS(=O)(=O)c1ccc(/N=C2\\S/C(=C3\\C(=O)Nc4c(F)cccc43)C(=O)N2C2CC2)cc1", ">", 100),
    ("CC[C@@]1(O)C(=O)OCc2c1cc1n(c2=O)Cc2cc3ccccc3nc2-1 [Camptothecin, reference compound]", "=", 8.5),
]
